Please provide measured % Inhibition for the entries that follow.
test system: P. falciparum stage V gametocytes; set-up: BacTiter-Glo ATP luminescence viability of purified stage V gametocytes in 384-well plates, per cent inhibition versus DMSO; settings: 48 h, 5 µM; inhibitor
In all, about 13,000 compounds went through this assay and about 3,200 (25%) showed an effect of 50% or more. The list shows a part of the results.
Give just the number in %; leave the unit off.

Exam item: Give the reported % Inhibition for NC(=O)C1CCN(Cc2cccc(-c3ccc(-c4nc5ccc(C(F)(F)F)cc5[nH]4)cc3)c2)CC1 (system: P. falciparum stage V gametocytes).
Marked response: -22.66

Exam item: Identify the measured % Inhibition of N=C(N)NCCN(Cc1ccccc1)c1ccc(Cl)cc1 for P. falciparum stage V gametocytes.
Marked response: 72.85

Exam item: Request: % Inhibition, test system P. falciparum stage V gametocytes, entry COc1cc(-c2nc3c4ccccc4c4ccccc4c3[nH]2)cc(OC)c1OC
Marked response: 2.227

Exam item: Quick check: % Inhibition on P. falciparum stage V gametocytes, item COc1cc(CNCCCNc2cc(=O)c3ccccc3[nH]2)c2c(c1)C(C)CN2C(=O)OC(C)(C)C (stereo not shown) ?
Marked response: -23.23

Exam item: Provide the documented % Inhibition with P. falciparum stage V gametocytes as the system for CC(=O)CCc1ccc(OCCN(Cc2ccccc2C(F)(F)F)c2ccc(C#N)c(C(F)(F)F)c2)cc1
Marked response: 23.15

Exam item: Return % Inhibition measured with P. falciparum stage V gametocytes given this compound: Cc1cccc2nc(-c3ccc(-c4ccc(CN5CCC(C(N)=O)CC5)cc4)cc3)[nH]c12.O=C(O)C(F)(F)F
Marked response: 10.12

Exam item: Test system P. falciparum stage V gametocytes; read-out % Inhibition; what value for O=C(Nc1cccc(CN2CCCN(Cc3ccc(O)cc3)CC2)c1)c1ccc2ccccc2c1 ?
Marked response: 26.89

Exam item: Give % Inhibition (P. falciparum stage V gametocytes) of the following compound: O=C(CN1CCC(NCc2cnc(-c3ccc(Cl)cc3)[nH]2)CC1)N1CCc2ccccc21
Marked response: 28.41

Exam item: Checklist item: % Inhibition tested on P. falciparum stage V gametocytes, entry O=C(Nc1cccc(-c2cccc(F)c2)c1)C1CCN(Cc2ccc(O)cc2)CC1 , value?
Marked response: 48.55

Exam item: Return % Inhibition measured with P. falciparum stage V gametocytes given this compound: Fc1ccc2nc(-c3cccc(-c4ccc(CN5CCCCC5)cc4)c3)[nH]c2c1
Marked response: 2.75

Exam item: Lab note: need % Inhibition with P. falciparum stage V gametocytes for entry Cc1ccc(Nc2ccnc(Nc3ccc4c(c3)CS(=O)(=O)C4)n2)cc1O , please look it up.
Marked response: -40.59

Exam item: Param readout = % Inhibition; param system = P. falciparum stage V gametocytes; param query = N=C(N)NCCN(Cc1ccccc1)c1ccccc1 ; response: value
Marked response: 26.01

Exam item: Give P. falciparum stage V gametocytes % Inhibition for COc1cc(C)c(NC(=O)c2cccc3c(=O)c(C)c(-c4ccccc4)oc23)cc1OC
Marked response: -26.52

Exam item: Please provide the recorded % Inhibition for COc1cccc2c(NCCNc3ccnc4c(OC)cccc34)ccnc12 , tested on P. falciparum stage V gametocytes.
Marked response: 30.12

Exam item: Any idea what % Inhibition came out for c1cc(-c2ccc(CN3CCCCC3)cc2)cc(-c2nc3ccccc3[nH]2)c1 on P. falciparum stage V gametocytes?
Marked response: -5.733

Exam item: Field: % Inhibition (P. falciparum stage V gametocytes). Entry: N=C(N)CCN(Cc1ccc(Cl)cc1)c1ccc(Cl)cc1
Marked response: 54.29

Exam item: What reported % Inhibition corresponds to COc1ccc(Nc2nccc(-c3c(-c4cccc(NC(=O)c5c(F)cccc5F)c4)nn4ccccc34)n2)cc1Cl on P. falciparum stage V gametocytes?
Marked response: -50.42

Exam item: Hi! What's the reported % Inhibition for O=C(O)C(F)(F)F.OCC1CCN(Cc2ccc(-c3ccc(-c4nc5cc(F)ccc5[nH]4)cc3)cc2)CC1 on P. falciparum stage V gametocytes?
Marked response: 29.73

Exam item: So what % Inhibition did N=C(N)CCN(Cc1ccccc1)c1ccc(Cl)cc1 get with P. falciparum stage V gametocytes?
Marked response: 9.979

Exam item: Value wanted: % Inhibition (P. falciparum stage V gametocytes) of entry NC(=O)C1CCN(Cc2ccc(-c3ccc(-c4nc5cc(F)ccc5[nH]4)cc3)cc2)CC1.O=C(O)C(F)(F)F
Marked response: 4.411

Exam item: Lookup: % Inhibition / P. falciparum stage V gametocytes / CC(=NNc1nc2ccccc2s1)c1ccccn1
Marked response: 64.52

Exam item: For the record COc1ccc2nccc(NC(=O)C3(O)CCC(NCc4ncc5c(c4Cl)OCCO5)CC3)c2n1 (stereo not shown) , what value of % Inhibition is listed for P. falciparum stage V gametocytes?
Marked response: 2.096

Exam item: Which % Inhibition is reported with P. falciparum stage V gametocytes for this entry: COc1cccc(CN2CCCN(Cc3cccc(NC(=O)c4ccc(-c5ccccc5)cc4)c3)CC2)c1 ?
Marked response: -61.09

Exam item: Observed % Inhibition on P. falciparum stage V gametocytes for N#Cc1cccc(NC(=O)Nc2ccc(-c3cccc(-c4nc5ccc(F)cc5[nH]4)c3)cc2)c1 , please.
Marked response: 24.35

Exam item: For the record CCOc1ccc2nc(NC(=O)c3csnn3)sc2c1 , what value of % Inhibition is listed for P. falciparum stage V gametocytes?
Marked response: 43.02

Exam item: Item CCCN1CCCN(Cc2cccc(NC(=O)c3ccc(-c4ccccc4)cc3)c2)CC1 with P. falciparum stage V gametocytes - % Inhibition?
Marked response: -30.15

Exam item: Give P. falciparum stage V gametocytes % Inhibition for Cc1ccc(N(CCC(=N)N)Cc2ccccc2)cc1
Marked response: 26.05

Exam item: Query the reported % Inhibition for P. falciparum stage V gametocytes; item: COc1cccc(O)c1CN1CCC2(CCCN(Cc3ccc(F)cc3)C2)C1 (stereo not shown)
Marked response: -20.8

Exam item: Please provide the recorded % Inhibition for O=C(NCc1cccc(F)c1)Nc1cccc(-c2ccc(-c3nc4ccc(F)cc4[nH]3)cc2)c1 , tested on P. falciparum stage V gametocytes.
Marked response: 6.951

Exam item: Param readout= % Inhibition; system= P. falciparum stage V gametocytes; entry= COc1ccc(CN2CCCN(Cc3cccc(NC(=O)c4ccc(-c5ccccc5)cc4)c3)CC2)cc1 ; returns value.
Marked response: 80.31

Exam item: Please state recorded % Inhibition (tested on P. falciparum stage V gametocytes) of CC(=NNC(=S)NCc1ccco1)c1ccccn1
Marked response: 99.6

Exam item: Lab note: need % Inhibition with P. falciparum stage V gametocytes for entry COc1cc(Cc2cnc(N)nc2N)ccc1OCc1cccc(Oc2ccccc2)c1 , please look it up.
Marked response: -11.55

Exam item: Find the measured % Inhibition: item Fc1ccc2[nH]c(-c3ccc(-c4ccc(CN5CCC(CCN6CCCCC6)CC5)cc4)cc3)nc2c1 , target or system P. falciparum stage V gametocytes.
Marked response: 105.4

Exam item: P. falciparum stage V gametocytes / % Inhibition / COc1cc(CNC(=S)NN=C(C)c2ccccn2)cc(OC)c1OC : value?
Marked response: 55.54

Reference for the values: paper PMC4552634
